# Tested on: rape
# Assay method text: Test B pre/postemergence rape
# Type: in vivo, Brassica napus
# Measurement parameters: Preemergence, Rate 500 g/ha; scale 0 to 10 (0 no effect, 10 complete control)

Smiles str	Experimental system	Rape plant response rating
Cc1nn(C)c(C)c1-n1c(=O)on(C(=O)N(c2ccccc2)C(C)C)c1=O	rape	3
CCn1c(=O)on(C(=O)N(c2ccc(Cl)cc2)C(C)C)c1=O	rape	9
CC(C)Cn1c(=O)on(C(=O)N(c2ccc(F)cc2)C(C)C)c1=O	rape	10
Cc1cnn(C)c1-n1c(=O)on(C(=O)N(c2ccc(F)cc2)C(C)C)c1=O	rape	0
CC(C)N(C(=O)n1oc(=O)n(C2CCCCC2)c1=O)c1ccc(F)cc1	rape	8
CC(C)N(C(=O)n1oc(=O)n(Cc2cccs2)c1=O)c1ccccc1	rape	0
